Reference source for all entries: paper PMC10572522

# Test system: human glioblastoma astrocytoma U251MG
# ASSAY OVERVIEW: Anti-proliferative assay (MTT)
# Assay type: cell-based
# TEST CONTEXT: 24 h
Residues, ends and D or L forms follow the SMILES beside them.
Reported IC50 values for a set of molecules
Reply numerically in µM, unit not repeated.

>>> data_value("CC[C@H](C)[C@H](NC(=O)[C@H](CCCNC(=N)N)NC(=O)[C@H](CCCNC(=N)N)NC(=O)[C@H](CC(C)C)NC(=O)[C@@H](N)CCCNC(=N)N)C(=O)N[C@@H](CC(C)C)C(=O)N[C@@H](CCCNC(=N)N)C(=O)N[C@@H](CCCCN)C(=O)N[C@H](C(=O)N[C@H](C(=O)N[C@@H](CCCNC(=N)N)C(=O)N[C@@H](CCCNC(=N)N)C(=O)N[C@@H](CC(C)C)C(N)=O)C(C)C)[C@@H](C)CC [Crabrolin-PR, RLRRILRKIVRRL-NH2] (H-RLRRILRKIVRRL-NH2)")
17.7
>>> data_value("CC[C@H](C)[C@H](NC(=O)[C@H](CC(C)C)NC(=O)[C@@H]1CCCN1C(=O)[C@H](CC(C)C)NC(=O)[C@@H](N)Cc1ccccc1)C(=O)N[C@@H](CC(C)C)C(=O)N[C@@H](CCCNC(=N)N)C(=O)N[C@@H](CCCCN)C(=O)N[C@@H](CCCNC(=N)N)C(=O)N[C@H](C(=O)N[C@H](C(=O)N[C@@H](C)C(=O)N[C@@H](CC(C)C)C(N)=O)[C@@H](C)O)C(C)C [Crabrolin-9R, FLPLILRKRVTAL-NH2] (H-FLPLILRKRVTAL-NH2)")
1140

What does the data say about its IC50? Entry: CC[C@H](C)[C@H](NC(=O)[C@H](CCCNC(=N)N)NC(=O)[C@@H]1CCCN1C(=O)[C@H](CC(C)C)NC(=O)[C@@H](N)CCCNC(=N)N)C(=O)N[C@@H](CC(C)C)C(=O)N[C@@H](CCCNC(=N)N)C(=O)N[C@@H](CCCCN)C(=O)N[C@H](C(=O)N[C@H](C(=O)N[C@@H](CCCNC(=N)N)C(=O)N[C@@H](CCCNC(=N)N)C(=O)N[C@@H](CC(C)C)C(N)=O)C(C)C)[C@@H](C)CC [Crabrolin-AR, RLPRILRKIVRRL-NH2] (H-RLPRILRKIVRRL-NH2)
52

* * *

Reported HC10 (10% hemolytic concentration) values for a set of compounds
# Test system: horse erythrocytes
# ASSAY OVERVIEW: Hemolysis assay
# Assay type: cell-based
# TEST CONTEXT: erythrocytes, 37 °C, 2 h
Residues, ends and D or L forms follow the SMILES beside them.
Reply numerically in µM, unit not repeated.

>>> data_value("CC[C@H](C)[C@H](NC(=O)[C@H](CCCNC(=N)N)NC(=O)[C@@H]1CCCN1C(=O)[C@H](CC(C)C)NC(=O)[C@@H](N)CCCNC(=N)N)C(=O)N[C@@H](CC(C)C)C(=O)N[C@@H](CCCNC(=N)N)C(=O)N[C@@H](CCCCN)C(=O)N[C@H](C(=O)N[C@H](C(=O)N[C@@H](CCCNC(=N)N)C(=O)N[C@@H](CCCNC(=N)N)C(=O)N[C@@H](CC(C)C)C(N)=O)C(C)C)[C@@H](C)CC [Crabrolin-AR, RLPRILRKIVRRL-NH2] (H-RLPRILRKIVRRL-NH2)")
59.049
>>> data_value("CC[C@H](C)[C@H](NC(=O)[C@H](CCCNC(=N)N)NC(=O)[C@@H]1CCCN1C(=O)[C@H](CC(C)C)NC(=O)[C@@H](N)Cc1ccccc1)C(=O)N[C@@H](CC(C)C)C(=O)N[C@@H](CCCNC(=N)N)C(=O)N[C@@H](CCCCN)C(=O)N[C@H](C(=O)N[C@H](C(=O)N[C@H](C(=O)N[C@@H](C)C(=O)N[C@@H](CC(C)C)C(N)=O)[C@@H](C)O)C(C)C)[C@@H](C)CC [Crabrolin-4R, FLPRILRKIVTAL-NH2] (H-FLPRILRKIVTAL-NH2)")
62.117
>>> data_value("CC[C@H](C)[C@H](NC(=O)[C@H](CC(C)C)NC(=O)[C@@H]1CCCN1C(=O)[C@H](CC(C)C)NC(=O)[C@@H](N)Cc1ccccc1)C(=O)N[C@@H](CC(C)C)C(=O)N[C@@H](CCCNC(=N)N)C(=O)N[C@@H](CCCCN)C(=O)N[C@H](C(=O)N[C@H](C(=O)N[C@H](C(=O)N[C@@H](C)C(=O)N[C@@H](CC(C)C)C(N)=O)[C@@H](C)O)C(C)C)[C@@H](C)CC [Crabrolin, FLPLILRKIVTAL-NH2] (H-FLPLILRKIVTAL-NH2)")
34.575
>>> data_value("CC[C@H](C)[C@H](NC(=O)[C@H](CCCNC(=N)N)NC(=O)[C@@H]1CCCN1C(=O)[C@H](CC(C)C)NC(=O)[C@@H](N)Cc1ccccc1)C(=O)N[C@@H](CC(C)C)C(=O)N[C@@H](CCCNC(=N)N)C(=O)N[C@@H](CCCCN)C(=O)N[C@H](C(=O)N[C@H](C(=O)N[C@@H](CCCNC(=N)N)C(=O)N[C@@H](C)C(=O)N[C@@H](CC(C)C)C(N)=O)C(C)C)[C@@H](C)CC [Crabrolin-TR, FLPRILRKIVRAL-NH2] (H-FLPRILRKIVRAL-NH2)")
36.041
>>> data_value("CC[C@H](C)[C@H](NC(=O)[C@H](CCCNC(=N)N)NC(=O)[C@H](CCCNC(=N)N)NC(=O)[C@H](CC(C)C)NC(=O)[C@@H](N)CCCNC(=N)N)C(=O)N[C@@H](CC(C)C)C(=O)N[C@@H](CCCNC(=N)N)C(=O)N[C@@H](CCCCN)C(=O)N[C@H](C(=O)N[C@H](C(=O)N[C@@H](CCCNC(=N)N)C(=O)N[C@@H](CCCNC(=N)N)C(=O)N[C@@H](CC(C)C)C(N)=O)C(C)C)[C@@H](C)CC [Crabrolin-PR, RLRRILRKIVRRL-NH2] (H-RLRRILRKIVRRL-NH2)")
5019

What does the data say about its HC10 (10% hemolytic concentration)? Entry: CC[C@H](C)[C@H](NC(=O)[C@H](CCCCN)NC(=O)[C@@H]1CCCN1C(=O)[C@H](CC(C)C)NC(=O)[C@@H](N)Cc1ccccc1)C(=O)N[C@@H](CC(C)C)C(=O)N[C@@H](CCCNC(=N)N)C(=O)N[C@@H](CCCCN)C(=O)N[C@H](C(=O)N[C@H](C(=O)N[C@H](C(=O)N[C@@H](C)C(=O)N[C@@H](CC(C)C)C(N)=O)[C@@H](C)O)C(C)C)[C@@H](C)CC [Crabrolin-4K, FLPKILRKIVTAL-NH2] (H-FLPKILRKIVTAL-NH2)
68.628
